Where do the numbers come from? From ChEMBL document CHEMBL1201862.

Test system: DLD-1
Assay: NCI tumour cell line growth inhibition, 48 h
The source made the active and inactive calls. No stated cut-off is given here; in the data, active = GI50 up to about 1.1 µM and inactive = higher.
Exercise: for every item that follows, state its recorded GI50.

In the examples that follow, each entry is paired with its recorded GI50.
- Nc1ccc2ncc(Nc3ccc(Cl)c(Cl)c3)nc2c1: 29.6 µM (inactive)
- CN(C(=N)c1ccccc1)c1ccccc1: > 100 µM (inactive)
- CC(C)C(N)=O [ISOBUTYRAMIDE]: > 5000 µM (inactive)
- COC(=O)C1=CC2C(=O)OC1C1C(=O)NC(=O)C21 (stereo unspecified): > 100 µM (inactive)
- OCC1OC(NO)C(O)C(O)C1O (stereo unspecified): > 100 µM (inactive)

Please state GI50 for every compound in the list that follows.
1. CC(C)(C)N1C(C(=O)c2ccccc2)C1c1ccccc1 (stereo unspecified)
2. O=C(Cn1cc(I)c(C(=O)NCC(O)CO)n1)NCC(O)CO (stereo unspecified)
3. CC1C(=O)C(C)C(c2cccs2)N(N=O)C1c1cccs1 (stereo unspecified)
4. O=C1CC(O)(c2ccccc2)C(c2ccccc2)=C1c1ccccc1 (stereo unspecified)
5. Cc1c2cnccc2c(C)c2c1c1ccccc1n2CCOC(=O)c1ccccc1

Result:
["> 100 µM (inactive)", "> 100 µM (inactive)", "> 100 µM (inactive)", "44.2 µM (inactive)", "7.69 µM (inactive)"]
